tested on: L1210; experiment: In vivo median survival time of treated vs untreated mice x 100 against murine L1210 leukemia cells after iv treatment on day 1 after tumor iv transplant; type: functional, Mus musculus
Output 1 for T/C not less than 200%; output 0 otherwise.

> print(dat)
                               entry.smiles  cat
1  Cl.Cn1cc(NC(=O)c2cc(NC(=O)c3cc(N(CCCl)CCCl)cn3C)cn2C)cc1C(=O)NCCC(=N)N    0
2  C=C(Br)C(=O)Nc1ccc2c(c1)cc(C(=O)Nc1cc(C(=O)Nc3cc(C(=O)Nc4cc(C(=O)NCCC(=N)N)n(C)c4)n(C)c3)n(C)c1)n2C.Cl    0
3  Cl.Cn1cc(NC(=O)c2cc(NC(=O)c3cc(NC(=O)c4cc5cc(N(CCCl)CCCl)ccc5n4C)cn3C)cn2C)cc1C(=O)NCCC(=N)N    1
4  Cl.Cn1cc(NC(=O)c2cc(NC(=O)c3cc(NC(=O)c4cc5cc(N(CCCl)CCCl)ccc5[nH]4)cn3C)cn2C)cc1C(=O)NCCC(=N)N    0
5  Cl.Cn1cc(NC(=O)c2cc(NC(=O)c3cc(NC(=O)c4cc(N(CCCl)CCCl)cn4C)cn3C)cn2C)cc1C(=O)NCCC(=N)N    0
6  Cl.Cn1cc(NC(=O)c2cc(NC(=O)c3cc(NC(=O)c4cc5cc(NC(=O)c6ccc(N(CCCl)CCCl)cc6)ccc5[nH]4)cn3C)cn2C)cc1C(=O)NCCC(=N)N    0

Reference source: ChEMBL document CHEMBL1133770
